B1: PPEF2 (parent)
chain: AFKAAALIQRWYRRYVARLEMRRR

# Variants of: B1
# test_method_notes: protein stability index of a GFP-peptide fusion (GPS, HEK-293T) (PSI 1-6); higher = more stable;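 also: lentivirally expressed fusions sorted by FACS into six bins by GFP to DsRed ratio, PSI derived from sequencing read proportions per bin multiplied by bin number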
# condition_summary: c terminus: a fixed tail appended
protein stability index reference

[
  {
    "var": "W11N",
    "protein stability index": 4.17
  },
  {
    "var": "R24K",
    "protein stability index": 2.75
  },
  {
    "var": "R18E",
    "protein stability index": 1.96
  },
  {
    "var": "Q9R",
    "protein stability index": 3.48
  },
  {
    "var": "Y15A",
    "protein stability index": 4.61
  },
  {
    "var": "A1I",
    "protein stability index": 3.77
  },
  {
    "var": "F2K",
    "protein stability index": 3.04
  },
  {
    "var": "R14N",
    "protein stability index": 2.83
  },
  {
    "var": "E20S",
    "protein stability index": 3.65
  },
  {
    "var": "A6K",
    "protein stability index": 2.83
  },
  {
    "var": "R23L",
    "protein stability index": 2.48
  }
]

Measured values drawn from the supplement of paper PMC10567573 for this set.
